TEST NAME: Biodistribution of 67Ga complexes in mice
Format: in vivo, balb/c mice
TEST PARAMETERS: 120 min
ASSAY ENDPOINT: biodistribution spleen (% ID)

Consider the worked cases shown below.
Lookup: I would be grateful if you could share the reported biodistribution spleen for `CC(C)(C)c1ccc(O)c(NC(=O)CN(CCN(CC(=O)O)CC(=O)Nc2cc(C(C)(C)C)ccc2O)CC(=O)O)c1` .
Found: 0.01

Lookup: I would be grateful if you could share the reported biodistribution spleen for `O=C(O)CN(CCN(CC(=O)O)CC(=O)Nc1ccc(Cl)cc1O)CC(=O)Nc1ccc(Cl)cc1O` .
Found: 0

a = Cc1cc(C)c(O)c(NC(=O)CN(CCN(CC(=O)O)CC(=O)Nc2cc(C)cc(C)c2O)CC(=O)O)c1
b = O=C(O)CN(CCN(CC(=O)O)CC(=O)Nc1ccccc1O)CC(=O)Nc1ccccc1O
Lookup: Lower value of biodistribution spleen belongs to which: a or b ? Please indicate the selected item by its label.
Found: a
